Biological target: T1, recombinant canine β NGF (canine, UniProt Q29074 110-229 (pig entry))
T1 chain: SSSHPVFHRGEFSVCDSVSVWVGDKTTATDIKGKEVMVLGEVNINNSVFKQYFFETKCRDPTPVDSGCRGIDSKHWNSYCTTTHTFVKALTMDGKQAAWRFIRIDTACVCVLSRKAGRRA
Assay: cell-based or functional assay
EXPERIMENTAL READOUT: SureFire pERK IC50 (128 pM canine β NGF) (pM)
Numeric answer only, unit pM assumed.

[[record]]
binder = "PR-1254981 (antibody, mouse IgG1, V domains shown, also called 14A9; ML130-14A9.5B12) VH: EVQLVESGGGAVKPGGSLTLSCAASGFTFSNHYMYWVRQTPEKRLEWVASISDGGAYTFYPDTVKGRFTISRDNVNNNLYLQMRHLKSEDTAMYYCTREESANNGFAFWGQGTLVTVSA VL: DVLMTQTPLSLPVSLGDQASISCRSSQSILHSNGNTYLEWYLQKPGQSPNLLIYRVSNRFSGVPDRFSGSGSGTDFTLKISRVEAEDLGVYYCFQGAHVPFTFGSGTKLEIKR"
assay_value = 21.4

[[record]]
binder = "PR-1254982 (antibody, mouse IgG1, V domains shown, also called 3F7; ML130-3F7.4A8) VH: QVQLKESGPGLVAPSQSLSITCTVSGFSLTGYNINWVRQPPGKGLEWLGMIWGYGDTDYNSALKSRLSISKDNSKSQVFLKMNSLQTDDTARYYCARDHYGGNDWYFDVWGTGTTVTVSS VL: DIQMTQTTSSLSASLGDRVTITCRASQDITNYLNWYQQKPDGTVKLLIYYTSRLHSGVPSRFSGSGSGTDYSLTISNLDQEDIATYFCQQGKTLPRTFGGGTKLEIKR"
assay_value = 5.8

[[record]]
binder = "PR-1254980 (antibody, mouse IgG1, V domains shown, also called 23F1; ML129-23F1.4G3) VH: EVQLQQSGAELVKPGASVKLSCTASGFNIKDTYIYWVKQRPEQGLEWIGRIDPANGNTIYASKFQGKATITADTSSNTAYMQLSSLTSGDTAVYYCAGYGYYAYWGQGTTLTVSS VL: DVVLTQTPLSLPVNIGDQASISCKSTKSLLNGDGFTYLDWYLQKPGQSPQLLIYLVSNRFSGVPDRFSGSGSGTDFTLKISRVEAEDLGVYYCFESNYLFTFGSGTKLEMKR"
assay_value = 13.7

[[record]]
binder = "PR-1254973 (antibody, mouse IgG2b, V domains shown, also called 2B12; ML129-2B12.5G9) VH: QVQLQQPGAELVKPGASVKLSCKASGYTFTNYWMHWVKQRPGQGLEWIGRIDPYGGGTKHNEKFKRKATVTADKSSSTAYILLSSLTSEDSAVYYCTRSGYDYYFDVWGTGTTVTVSS VL: DIQMTQSPASLSASVGETVTVTCRASENIYSFLAWHQQKQGKSPQLLVYNANTLAEGVPSRFSGSGSGTQFSLKINSLQPEDFGSYYCQHHFGTPFTFGSGTKLEIKR"
assay_value = 18.8


Next binder, SureFire pERK IC50 (128 pM canine β NGF) to be filled in.
Query: Hello, please tell me recorded SureFire pERK IC50 (128 pM canine β NGF) for this one: PR-1254977 (antibody, mouse IgG1, V domains shown, also called 21D4; ML129-21D4.4A11) VH: EVQLQQSGAELVKPGASVKLSCTASGFNIKDTYIYWVKQRPEQGLEWIGRIDPANGNTIYASKFQGKASITADTSSNTAYMQLSSLTSGDTAVYYCAGYGYYAYWGQGTTLTVSS VL: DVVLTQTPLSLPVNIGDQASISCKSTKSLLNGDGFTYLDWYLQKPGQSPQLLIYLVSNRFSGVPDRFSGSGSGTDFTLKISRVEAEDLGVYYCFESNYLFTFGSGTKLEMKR
Response: 17.6
